This collection of values is drawn from PubChem BioAssay (NCI).

Provide the recorded TGI for the entries that follow.
# Test system: SK-MEL-2 melanoma
# measurement description: NCI tumour cell line growth inhibition, 48 h
One number for each entry, in µM.

{"columns": ["smiles", "target of assay", "reading unit", "TGI"],
 "data": [
  ["C[C@]12CC[C@H]3[C@@H](CCC4=C/C(=N/OCCN5CCCCC5)CC[C@@]43C)[C@@H]1CC[C@@H]2O", "SK-MEL-2 melanoma", "µM", 29.8]
]}

Ask | What value of TGI has been reported for the following compound? CC(C)(C)c1cc(C(C)(C)C)c2sc(=O)oc2c1O
Reply | 29.1

###

# System: MOLT-4 leukemia
# measurement description: NCI tumour cell line growth inhibition, 48 h
Would you mind telling me the reported TGI of each entry?

Recorded TGI, per entry:
{"columns": ["molecule", "target of assay", "TGI"],
 "data": [
  ["CN(C)CN(C)c1nc(N(C)C)nc(N(C)C)n1", "MOLT-4 leukemia", "> 100 µM"],
  ["Nc1ccc2c3c1cccc3c(=O)n1c3ccc(Cc4ccc5c(c4)nc4c6ccc(N)c7cccc(c(=O)n54)c76)cc3nc21", "MOLT-4 leukemia", "> 100 µM"],
  ["c1ccc2c(c1)n1nnnc1c1nnnn21", "MOLT-4 leukemia", "> 100 µM"]
]}

Could you report TGI for every entry in the following list?
1. O=C(O)C1C2OC(C(Br)C2Br)C1C(=O)O (stereo unspecified)
2. CCOc1ccc(N=Nc2c(-c3ccccc3)nn(C(=O)CC(=O)Nc3ccccc3Cl)c2-c2ccccc2)cc1
3. Nc1ncnc2c1ncn2CCCNO
4. O=c1[nH]c2ccccc2c(=O)n1/N=C\c1ccccc1O
5. COc1ccc(-c2nc3sccn3c2/C=C/C(=O)c2cc(OC)c(OC)c(OC)c2)cc1
6. O=C(CN1CCCC1)Nc1ccc2c(c1)C1Oc3ccccc3CC1CO2 (stereo unspecified)

Reply |
1: > 100 µM; 2: > 100 µM; 3: > 100 µM; 4: > 100 µM; 5: 23.7 µM; 6: > 100 µM

Would you be so kind as to report TGI for each listed record?
1. Cc1cc(C)n(C(=CC(=O)C(Cl)Cl)n2nc(C)cc2C)n1
2. CCOC(=O)CC1(N)CC2c3ccccc3OC(=O)C2C(=O)N1 (stereo unspecified)
3. CCCCCCCC(=O)OC[n+]1cccc(-c2c(COC(=O)NC(C)C)c(COC(=O)NC(C)C)c3n2CCC3)c1
4. CC(C)(C)OC(=O)N1CCC2(CC1)C(=O)NCN2c1ccccc1
5. O=[N+]([O-])/C=C/c1cn(CCCCCCCCn2cc(/C=C/[N+](=O)[O-])c3ccccc32)c2ccccc12

Reply |
1. 0.806 µM
2. > 100 µM
3. 99.4 µM
4. > 100 µM
5. > 10 µM

// for each molecule below, give its TGI
1. COc1ccc(S(=O)(=O)NNS(C)(=O)=O)cc1OC
2. c1ccc2[nH]c(-c3cscn3)nc2c1

Reply |
> 100 µM
> 100 µM
